- TEST DESCRIPTION: Rat pharmacokinetics
- Type: in vivo, Sprague-Dawley rats
- STUDY CONDITIONS: male, Sprague-Dawley, PO 25 mg/kg, plasma
VALUE KIND: Cmax (µM)
Give bare numbers, in µM.

Fill in: Cmax of `CC(C)c1nn([C@@H]2O[C@H](COS(N)(=O)=O)[C@@H](O)[C@H]2O)c2ncnc(N)c12` is ___ 0.393

----------
- TEST DESCRIPTION: Rat pharmacokinetics
- Type: in vivo, Sprague-Dawley rats
- STUDY CONDITIONS: male, Sprague-Dawley, whole blood, PO 10 mg/kg, blood, read-out: %F
VALUE KIND: bioavailability (%)
Answers are plain numbers, in %.

I have this compound here, CC(C)c1nn([C@@H]2O[C@H](COS(N)(=O)=O)[C@@H](O)[C@H]2O)c2ncnc(N)c12 [ML471] , and I need its recorded bioavailability. 9.56

----------
- TEST DESCRIPTION: Blood exposure in the P. falciparum infected SCID mouse model
- Assay type: in vivo, NODscidIL2Rγ^null mice engrafted with human RBCs
- STUDY CONDITIONS: female, NODscidIL2Rγ^null, mouse, whole blood, po, 50 mg/kg, 4 days x 50 mg/kg p.o., after first dose, blood, read-out: Cmax (mean)
VALUE KIND: Cmax (ng/mL)
Answers are plain numbers, in ng/mL.

Bench note: what Cmax did `CC(C)c1nn([C@@H]2O[C@H](COS(N)(=O)=O)[C@@H](O)[C@H]2O)c2ncnc(N)c12` show? 964

----------
- EXPERIMENTAL TARGET: PfTyrRS (Plasmodium falciparum, UniProt Q8IAR7)
- Sequence (Q8IAR7 entry or part of it): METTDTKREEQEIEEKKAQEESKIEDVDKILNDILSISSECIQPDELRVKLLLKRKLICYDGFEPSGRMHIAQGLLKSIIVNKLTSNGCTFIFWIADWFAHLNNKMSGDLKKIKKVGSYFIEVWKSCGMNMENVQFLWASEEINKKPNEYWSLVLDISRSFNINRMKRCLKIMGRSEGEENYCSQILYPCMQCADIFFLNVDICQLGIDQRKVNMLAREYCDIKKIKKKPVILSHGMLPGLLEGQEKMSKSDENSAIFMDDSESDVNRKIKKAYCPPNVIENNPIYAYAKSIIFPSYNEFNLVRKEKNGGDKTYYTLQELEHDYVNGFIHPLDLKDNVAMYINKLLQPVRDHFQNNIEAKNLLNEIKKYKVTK
- TEST DESCRIPTION: Differential scanning fluorimetry (DSF) of PfTyrRS
- Assay type: binding
- STUDY CONDITIONS: estimated from DSF with an irreversible thermal unfolding model; read-out: PfTyrRS binding (DSF) apparent KD
Sorting guide: entries reporting Kd beneath 0.6 nM go in the satisfied pile, the rest go in the not satisfied pile.

COMPOUND	EXPERIMENTAL TARGET	LABEL
CC(C)c1nn([C@@H]2O[C@H](COS(N)(=O)=O)[C@@H](O)[C@H]2O)c2ncnc(N)c12 [ML471]	PfTyrRS (Plasmodium falciparum, UniProt Q8IAR7)	satisfied
Nc1ncnc2c1c(C(F)(F)F)nn2[C@@H]1O[C@H](COS(N)(=O)=O)[C@@H](O)[C@H]1O [ML107]	PfTyrRS (Plasmodium falciparum, UniProt Q8IAR7)	not satisfied
CC(C)Oc1nn([C@@H]2O[C@H](COS(N)(=O)=O)[C@@H](O)[C@H]2O)c2ncnc(N)c12 [ML723]	PfTyrRS (Plasmodium falciparum, UniProt Q8IAR7)	satisfied

Strictly below 0.6 nM in Kd? Nc1ncnc2c1c(C1CC1)nn2[C@@H]1O[C@H](COS(N)(=O)=O)[C@@H](O)[C@H]1O [ML864] satisfied

Check if Kd falls below 0.6 nM for Nc1ncnc2c1c(OC(F)F)nn2[C@@H]1O[C@H](COS(N)(=O)=O)[C@@H](O)[C@H]1O [ML901] . not satisfied

Does CC(=O)c1nn([C@@H]2O[C@H](COS(N)(=O)=O)[C@@H](O)[C@H]2O)c2ncnc(N)c12 [ML111] have Kd strictly under 0.6 nM? not satisfied

Lab note: Kd threshold 0.6 nM. Does this compound come in strictly under it? CCc1nn([C@@H]2O[C@H](COS(N)(=O)=O)[C@@H](O)[C@H]2O)c2ncnc(N)c12 [ML681] satisfied

Values were extracted from paper PMC11671014.
